# System: RIPK1
# setup-conditions: concentration: 1 μM, replicates: in singlicate; n = 1;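 also: KINOMEscan kinase panel screen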
endpoint: %Inh (%)

>>> value_observed("CN1CCN(Cc2ccc(NC(=O)Nc3ccc(N(C)c4ccnc(Nc5ccc(CS(C)(=O)=O)cc5)n4)cc3)cc2)CC1.Cl")
40
>>> value_observed("Fc1cc(Cl)ccc1Nc1ccnc2cc(-c3ccc(CN4CCSCC4)o3)ccc12")
0
>>> value_observed("Cc1cc(-c2c(-c3ccc(F)cc3)ncn2CCCN2CCOCC2)nc(N)n1")
0
>>> value_observed("Cc1ccc(Nc2ccnc(Nc3ccc(C)c(F)c3)n2)cc1O.Cl")
1
>>> value_observed("COc1cccc(-c2nc(-c3ccccc3)[nH]c2-c2ccncc2)c1")
0
>>> value_observed("CSc1ccc(NC2=C(c3ccc(Cl)cc3)C(=O)NC2=O)cc1")
0
>>> value_observed("O=C(Nc1n[nH]c2nc(-c3cccc(O)c3)ccc12)C1CC1")
14
>>> value_observed("Cn1cc(-c2ccc3c(c2)CCN3C(=O)Cc2cc(F)cc(F)c2F)c2c(N)ncnc21")
99.7
>>> value_observed("CN(c1ccc(NC(=O)Nc2cccc(Cl)c2)cc1)c1ccnc(N)n1.Cl")
0
>>> value_observed("CCNc1nccc(-c2c(-c3ccc(F)cc3)ncn2C2CCN(C)CC2)n1")
8
>>> value_observed("CC(C)c1nc(-c2cccc(NS(=O)(=O)c3c(F)cccc3F)c2)c(-c2ccnc(Nc3ccc(N4CCOCC4)nc3)n2)s1.Cl")
0
>>> value_observed("O=C(Nc1c(F)cccc1F)c1cc(C(=O)c2ccccc2F)c[nH]1")
0
>>> value_observed("O=C(O)C(F)(F)F.O=c1[nH]ccc2nc(N[C@@H]3CCNC3)nc(Nc3cc(Cl)cc(Cl)c3)c12")
16
>>> value_observed("c1ccc(Oc2ccc(Nc3ccnc4cc(-c5ccc(CN6CCCCC6)o5)ccc34)cc2)nc1")
0
>>> value_observed("COc1cccc(CC(=O)N2CCc3cc(-c4cn(C)c5ncnc(N)c45)ccc32)c1")
100
>>> value_observed("Cl.Cl.NCC(NC(=O)c1cc(-c2cccnc2)c(-c2ccnc3[nH]ccc23)s1)c1ccccc1 (stereo not shown)")
10

* * *

Reported %Inh values are given for each entry in this list.
# Test system: SgK110
# setup-conditions: concentration: 1 μM, replicates: in singlicate; n = 1
endpoint: %Inh

>>> value_observed("N#CC1(c2cccc(C(=O)Nc3cccc(Oc4ccc5nc(NC(=O)C6CC6)sc5n4)c3)c2)CC1")
"17%"
>>> value_observed("Cc1nn2c(=O)cc(N3CCO[C@H](C)C3)nc2n1Cc1cccc(Cl)c1Cl")
"0%"
>>> value_observed("Cc1ccc(C)c(NC(=O)Nc2ccc(C)c(-c3ccc(C(=O)Nc4ccncc4)cc3)c2)c1")
"20%"
>>> value_observed("CCn1c(-c2nonc2N)nc2c(-c3ccccc3)ncc(OCCCN)c21.O=C(O)C(F)(F)F.O=C(O)C(F)(F)F")
"0%"
>>> value_observed("COc1cccc(CC(=O)N2CCc3cc(-c4cn(C)c5ncnc(N)c45)ccc32)c1")
"0%"
>>> value_observed("COc1ccc(C2=C(Nc3cccc(O)c3)C(=O)NC2=O)cc1")
"100%"

* * *

# System: PCTK1
# Construct: gene CDK16
# setup-conditions: concentration: 1 μM, replicates: in singlicate; n = 1
endpoint: %Inh

>>> value_observed("Cc1ccc(O)cc1Nc1ccnc2ccc(C(C)(C)C)cc12")
"12%"
>>> value_observed("CCNC(=O)/C=C/c1n[nH]c2cc(Sc3ccccc3C(=O)NC)ccc12")
"7%"
>>> value_observed("N#Cc1cnc2cc(-c3cnc(CNCCN4CCOCC4)s3)ccc2c1Nc1ccc(Oc2ccccc2)cc1")
"28%"
>>> value_observed("CN(c1ccc(NC(=O)N2CCN(CCCN3CCOCC3)CC2)cc1)c1ccnc(Nc2ccc(CS(C)(=O)=O)cc2)n1.Cl")
"0%"
>>> value_observed("CC(C)c1nc(-c2cccc(NS(=O)(=O)c3c(F)cccc3F)c2)c(-c2ccnc(Nc3ccc(N4CCOCC4)nc3)n2)s1.Cl")
"99.9%"
>>> value_observed("O=C(Nc1c(F)cccc1F)c1cc(C(=O)c2ccccc2F)c[nH]1")
"0%"
>>> value_observed("O=C(Nc1n[nH]c2nc(-c3ccccc3O)ccc12)C1CC1")
"11%"
>>> value_observed("COc1cccc(CC(=O)N2CCc3cc(-c4cn(C)c5ncnc(N)c45)ccc32)c1")
"3%"
>>> value_observed("COc1cc(Nc2ccnc3cc(-c4ccncc4)ccc23)cc(OC)c1OC.Cl")
"0%"
>>> value_observed("COC(=O)Nc1nc2cc(Oc3ccc(NC(=O)Nc4cccc(SC)c4)cc3)ccc2[nH]1.Cl")
"3%"
>>> value_observed("COc1ccc(C)c(Nc2ccnc(Nc3ccc(-c4cnc[nH]4)cc3)n2)c1.Cl")
"0%"
>>> value_observed("Cc1cccc(Nc2nc(N[C@H]3CCCC[C@H]3N)ncc2C(N)=O)c1.Cl")
"10%"
>>> value_observed("COc1cccc2c(-c3ccncc3)c(-c3ccc(F)cc3)nn12")
"0%"
>>> value_observed("Cc1ccc(O)cc1Nc1ccnc2cc(-c3ccc(CN4CCCCC4)o3)ccc12")
"0%"
>>> value_observed("CNc1nccc(-c2ccc3c(N)n[nH]c3c2)n1")
"0%"
>>> value_observed("O=C(Nc1n[nH]c2nc(-c3ccccc3)ccc12)C1CC1")
"16%"
>>> value_observed("Cc1cc(-c2c(-c3ccc(F)cc3)ncn2CCCN2CCOCC2)nc(N)n1")
"0%"
>>> value_observed("CCn1c(-c2nonc2N)nc2c(-c3ccccc3)ncc(OCCCN)c21.O=C(O)C(F)(F)F.O=C(O)C(F)(F)F")
"0%"
>>> value_observed("Cc1nn2c(=O)cc(N3CCO[C@H](C)C3)nc2n1Cc1cccc(Cl)c1Cl")
"7%"
>>> value_observed("Cn1cc(-c2ccc3c(c2)CCN3C(=O)Cc2cc(F)cc(F)c2F)c2c(N)ncnc21")
"6%"

FYI, the data here is from paper PMC5540273.
